assay: The area under curve (25 mg/kg) administered orally in marmoset; type: ADME, organism-based; conditions: callithrix, in vivo, po
Quantity name: AUC

Q. Recorded AUC of CS(=O)(=O)O.Cc1c(O)cccc1C(=O)N[C@@H](CSc1ccccc1)[C@H](O)CN1C[C@H]2CCCC[C@H]2C[C@H]1C(=O)NC(C)(C)C [NELFINAVIR MESYLATE] , please.
A. 2890 ng·h/mL

###

test: The maximum time for retention (200 mg) administered orally in human; conditions: in vivo, po
Quantity name: Tmax (h)
A number alone suffices; assume h.

Q. Fill in the blank: the reported Tmax of CS(=O)(=O)O.Cc1c(O)cccc1C(=O)N[C@@H](CSc1ccccc1)[C@H](O)CN1C[C@H]2CCCC[C@H]2C[C@H]1C(=O)NC(C)(C)C [NELFINAVIR MESYLATE] is ____.
A. 3

Where do the numbers come from? From ChEMBL document CHEMBL1130253.
